- system: cloned human κ opioid receptor (Homo sapiens, UniProt P41145)
- Construct: expressed in transfected cells; host or cells: CHO cells (membranes)
- Sequence (P41145 whole entry): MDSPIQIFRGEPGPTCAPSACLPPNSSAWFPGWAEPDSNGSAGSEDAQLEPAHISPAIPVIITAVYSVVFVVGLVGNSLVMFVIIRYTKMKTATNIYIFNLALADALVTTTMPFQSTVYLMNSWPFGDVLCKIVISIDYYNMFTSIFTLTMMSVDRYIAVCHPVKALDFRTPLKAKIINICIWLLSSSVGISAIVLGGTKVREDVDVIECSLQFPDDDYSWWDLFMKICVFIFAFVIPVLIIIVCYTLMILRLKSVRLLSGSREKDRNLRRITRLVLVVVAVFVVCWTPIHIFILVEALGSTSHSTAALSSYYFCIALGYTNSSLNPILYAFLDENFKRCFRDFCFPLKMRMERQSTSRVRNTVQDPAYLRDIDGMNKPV
- protocol description: Receptor binding: inhibition of [3H]diprenorphine binding to cloned human κ opioid receptor
pKi: −log10 of the molar value.
assay metric: pKi

Query: // returns reported pKi for input CCN(CC)C(=O)c1ccc(C2=CC3(CCNCC3)Oc3ccccc32)cc1
Response: < 6.00

====

- system: cloned human μ opioid receptor (Homo sapiens, UniProt P35372)
- Construct: expressed in transfected cells; host or cells: CHO cells (membranes)
- Sequence (P35372 whole entry): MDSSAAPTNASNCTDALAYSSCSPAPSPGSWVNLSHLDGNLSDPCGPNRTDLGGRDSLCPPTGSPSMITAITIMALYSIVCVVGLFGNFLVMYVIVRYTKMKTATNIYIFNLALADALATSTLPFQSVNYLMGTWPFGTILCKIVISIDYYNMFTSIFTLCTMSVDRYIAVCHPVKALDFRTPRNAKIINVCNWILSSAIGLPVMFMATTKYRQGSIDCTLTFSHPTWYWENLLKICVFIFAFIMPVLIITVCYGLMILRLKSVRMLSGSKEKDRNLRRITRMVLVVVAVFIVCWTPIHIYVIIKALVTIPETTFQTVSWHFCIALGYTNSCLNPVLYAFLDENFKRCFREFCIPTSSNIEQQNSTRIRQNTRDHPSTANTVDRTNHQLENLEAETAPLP
- protocol description: Receptor binding: inhibition of [3H]diprenorphine binding to cloned human μ opioid receptor
- condition description: read-out: % Inhibition at 10 μM (μ)
Give inhibition at 10 µM for every item shown.
Write it as a number; the unit % goes unstated.

Query: // returns reported inhibition at 10 µM for input CCN(CC)C(=O)c1ccc(C2=CC3(CC4CCC(C3)N4)Oc3ccccc32)cc1 (stereo not drawn)
Response: 24

Query: Try C1=C(c2cccnc2)c2ccccc2OC12CCNCC2 next.
Response: 36

Query: Try O=C(O)C1CCN(C(=O)c2ccc(C3=CC4(CCNCC4)Oc4ccccc43)cc2)CC1 next.
Response: 17

Query: Try CS(=O)(=O)c1ccc(C2=CC3(CCNCC3)Oc3ccccc32)cc1 next.
Response: 41

Query: Try CCN(CC)C(=O)c1ccc(C2=CC3(CCN(C)CC3)Oc3ccccc32)cc1 next.
Response: 17

Query: Try O=C(O)CCCn1nnc(-c2ccc(C3=CC4(CCNCC4)Oc4ccccc43)cc2)n1 next.
Response: 3.7
